biological target: recombinant human Muscarinic M1 receptor (Homo sapiens, UniProt P11229); construct: expressed in transfected cells; assay: Allosteric potency EC50 for Muscarinic M1 receptor, CHO pCRE-Luc reporter assay with EC20 of acetylcholine; format: cell-based; details: CHO cells, in presence of EC20 of acetylcholine, 4 hours
Sequence (P11229 whole entry): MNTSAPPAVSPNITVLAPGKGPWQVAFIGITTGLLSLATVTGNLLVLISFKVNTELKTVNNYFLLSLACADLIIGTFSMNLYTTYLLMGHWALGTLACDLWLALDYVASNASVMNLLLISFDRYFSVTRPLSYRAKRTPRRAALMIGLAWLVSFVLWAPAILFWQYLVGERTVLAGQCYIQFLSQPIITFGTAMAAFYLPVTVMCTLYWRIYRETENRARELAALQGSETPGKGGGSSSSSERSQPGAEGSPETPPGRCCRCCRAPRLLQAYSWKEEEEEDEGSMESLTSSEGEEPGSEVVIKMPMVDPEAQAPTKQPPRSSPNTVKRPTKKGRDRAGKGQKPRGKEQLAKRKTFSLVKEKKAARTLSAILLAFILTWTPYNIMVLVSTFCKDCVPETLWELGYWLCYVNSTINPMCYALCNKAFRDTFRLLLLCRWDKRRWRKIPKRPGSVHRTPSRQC
measurement.type: EC50 (µM)
Unit µM implied. Number only.

{"columns": ["smiles.repr", "scale.unit", "EC50"],
 "data": [
  ["O=C(N[C@H]1CCCC[C@@H]1O)c1cc(Cc2ccc(Br)cc2)c2cccnn12", "µM", 1.47],
  ["O=C(N[C@H]1CCCC[C@@H]1O)c1cc(Cc2ccc(F)c(F)c2)c2cccnn12", "µM", 1.51]
]}

Now turn to the next compound.
Task: Value lookup for EC50; key = `O=C(N[C@H]1CCCC[C@@H]1O)c1cc(Cc2ccnc(Cl)c2)n2cccc(F)c12`
Result: 2.06
